- Tested on: Staphylococcus aureus
- TEST: Antibacterial activity against methicillin-resistant Staphylococcus aureus CCARM 3506 assessed as bacterial growth inhibition measured during 24 hrs incubation at 37 degC by two-fold serial dilution technique
- Assay type: functional
- STATED_CONDITIONS: CCARM 3506, 24 h
PROPERTY: MIC (µg/mL)
Only the number, expressed in µg/mL, is required.

# example entries with known answers
Cc1nn(-c2ccccc2)c(Oc2ccc3ccccc3c2)c1/C=C1\SC(=S)N(CC(=O)O)C1=O    8
Cc1nn(-c2ccccc2)c(Oc2ccc(Cl)cc2Cl)c1/C=C1\SC(=S)N([C@H](C(=O)O)C(C)C)C1=O    4
Cc1nn(-c2ccccc2)c(Cl)c1/C=C1\SC(=S)N([C@@H](CC(C)C)C(=O)O)C1=O    32
CCC(C)[C@@H](C(=O)O)N1C(=O)/C(=C/c2c(C)nn(-c3ccccc3)c2Oc2ccccc2OC)SC1=S (stereo partly drawn)    16
CCC(C)[C@@H](C(=O)O)N1C(=O)/C(=C/c2c(C)nn(-c3ccccc3)c2Oc2ccc(Cl)cc2)SC1=S (stereo partly drawn)    4

Ask | Could you share which MIC value was measured for Cc1ccc(Oc2c(/C=C3\SC(=S)N(CC(=O)O)C3=O)c(C)nn2-c2ccccc2)c(C)c1 ?
Reply | 8

* * *

- System: Staphylococcus aureus
- TEST: Antibacterial activity against quinolone-resistant Staphylococcus aureus CCARM 3505 assessed as bacterial growth inhibition measured during 24 hrs incubation at 37 degC by two-fold serial dilution technique
- Assay type: functional
- STATED_CONDITIONS: CCARM 3505, 24 h
Property: MIC; scope: individual molecules
Only the number, expressed in µg/mL, is required.

# example entries with known answers
Cc1ccc(Oc2c(/C=C3\SC(=S)N([C@H](C(=O)O)C(C)C)C3=O)c(C)nn2-c2ccccc2)c(C)c1    4
CCC(C)[C@@H](C(=O)O)N1C(=O)/C(=C/c2c(C)nn(-c3ccccc3)c2Oc2ccc(C)cc2)SC1=S (some centres not stated)    4
Cc1nn(-c2ccccc2)c(Cl)c1/C=C1\SC(=S)N([C@@H](CC(C)C)C(=O)O)C1=O    32
Cc1nn(-c2ccccc2)c(Oc2ccc(Br)cc2)c1/C=C1\SC(=S)N([C@@H](CC(C)C)C(=O)O)C1=O    4
Cc1nn(-c2ccccc2)c(Oc2ccc(F)cc2)c1/C=C1\SC(=S)N([C@H](C(=O)O)C(C)C)C1=O    8

Turning to the following molecule.
Ask | Which MIC is reported with Staphylococcus aureus for this entry: Cc1nn(-c2ccccc2)c(Oc2ccc3ccccc3c2)c1/C=C1\SC(=S)N([C@H](C(=O)O)C(C)C)C1=O ?
Reply | 8

* * *

- Tested on: Staphylococcus aureus
- TEST: Antibacterial activity against methicillin-resistant Staphylococcus aureus CCARM 3506 assessed as bacterial growth inhibition measured during 24 hrs incubation at 37 degC by two-fold serial dilution technique
- Format: functional
- STATED_CONDITIONS: CCARM 3506, 24 h
PROPERTY: MIC (mg/L)
Only the number, expressed in mg/L, is required.

# example entries with known answers
Cc1nn(-c2ccccc2)c(Oc2c(Cl)cccc2Cl)c1/C=C1\SC(=S)N([C@H](C(=O)O)C(C)C)C1=O    16
CCC(C)[C@@H](C(=O)O)N1C(=O)/C(=C/c2c(C)nn(-c3ccccc3)c2Oc2ccc(C)cc2C)SC1=S (stereo partly drawn)    2
CCC(C)[C@@H](C(=O)O)N1C(=O)/C(=C/c2c(C)nn(-c3ccccc3)c2Oc2ccc(Cl)cc2Cl)SC1=S (stereo partly drawn)    1
Cc1nn(-c2ccccc2)c(Oc2ccc(F)cc2)c1/C=C1\SC(=S)N([C@H](C(=O)O)C(C)C)C1=O    8
CCC(C)[C@@H](C(=O)O)N1C(=O)/C(=C/c2c(C)nn(-c3ccccc3)c2Cl)SC1=S (stereo partly drawn)    32
Cc1nn(-c2ccccc2)c(Oc2cccc(Cl)c2)c1/C=C1\SC(=S)N(CC(=O)O)C1=O    16
CCC(C)[C@@H](C(=O)O)N1C(=O)/C(=C/c2c(C)nn(-c3ccccc3)c2Oc2ccccc2Cl)SC1=S (stereo partly drawn)    4

Ask | Which MIC is reported with Staphylococcus aureus for this entry: Cc1nn(-c2ccccc2)c(Oc2ccc(Br)cc2)c1/C=C1\SC(=S)N(CC(=O)O)C1=O ?
Reply | 8
